Target: Hypoxia-inducible factor 1-alpha (Homo sapiens) (UniProt Q16665)
Sequence (Q16665 whole entry, looked up): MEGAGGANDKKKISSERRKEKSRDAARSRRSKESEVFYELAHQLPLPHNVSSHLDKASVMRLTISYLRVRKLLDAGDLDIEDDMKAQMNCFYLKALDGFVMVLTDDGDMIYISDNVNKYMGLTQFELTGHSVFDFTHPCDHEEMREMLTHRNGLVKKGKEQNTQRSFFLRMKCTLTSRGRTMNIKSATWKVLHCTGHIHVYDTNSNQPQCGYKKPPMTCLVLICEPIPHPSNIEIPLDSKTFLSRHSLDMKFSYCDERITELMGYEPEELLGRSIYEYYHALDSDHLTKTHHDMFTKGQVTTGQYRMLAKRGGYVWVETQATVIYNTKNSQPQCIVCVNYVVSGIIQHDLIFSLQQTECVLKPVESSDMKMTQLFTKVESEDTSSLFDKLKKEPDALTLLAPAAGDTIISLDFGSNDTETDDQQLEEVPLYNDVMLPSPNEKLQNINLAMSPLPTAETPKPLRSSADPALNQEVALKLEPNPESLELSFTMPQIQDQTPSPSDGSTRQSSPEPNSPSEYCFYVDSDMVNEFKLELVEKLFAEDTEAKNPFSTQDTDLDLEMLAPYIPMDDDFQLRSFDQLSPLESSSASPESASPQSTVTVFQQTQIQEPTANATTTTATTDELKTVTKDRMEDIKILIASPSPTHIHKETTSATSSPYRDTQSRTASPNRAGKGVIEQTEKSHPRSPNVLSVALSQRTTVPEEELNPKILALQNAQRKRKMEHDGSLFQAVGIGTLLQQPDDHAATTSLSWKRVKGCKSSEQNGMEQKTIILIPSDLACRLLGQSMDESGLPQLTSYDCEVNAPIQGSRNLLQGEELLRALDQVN
Assay: HIF-1a and HIF-2a reporter inhibitors, SAR follow-up, cell-based, luminescence, MIAPaCa-2, 786-0, panel (AID 652011)
Conditions: MIAPaCa-2/PANC HIF reporter, luciferase luminescence, desferoxamine, overnight, HIF1a, run 1; at 99 µM (top of the series)
Returns Satisfied if the recorded inhibition is greater than or equal to -30%, and Not satisfied otherwise.

Study these solved cases before continuing.
> print(dat)
                             test.smiles     class.name
1     CC(C)(C)NC(=O)CCc1nc(-c2ccccc2)no1  Not satisfied
2    CCc1ccc(-c2noc(CCC(=O)NC3CC3)n2)cc1  Not satisfied
3        CCNC(=O)CCc1nc(-c2cccc(C)c2)no1  Not satisfied
4  CCCCc1ccc(-c2noc(CCC(=O)NC3CC3)n2)cc1      Satisfied

Query block: Determine whether this compound has inhibition no lower than -30%: CC(C)(C)c1ccc(-c2noc(CCC(=O)O)n2)cc1
Result block: Satisfied

Query block: Is reported inhibition greater than or equal to -30% here: CCNC(=O)CCc1nc(-c2c(Cl)cccc2Cl)no1
Result block: Satisfied
